Hey, just so you know, these numbers are from paper PMC7339578.

assay: Plasma pharmacokinetics in rats after a 30-min intravenous infusion of Kang-Ai injection; type: in vivo, Sprague–Dawley rats; conditions: male, Sprague-Dawley, rat, in vivo, iv, rat plasma; 30-min iv infusion of Kang-Ai injection 6 mL/kg; read-out: AUC0–12h
READOUT_LABEL: AUC(0-t) (µM·h)
Dear colleague, please return just the value in µM·h, with no unit written.

## Input Which AUC(0-t) is reported for this compound? CC(C)=CCC[C@](C)(O)[C@H]1CC[C@]2(C)[C@@H]1[C@H](O)C[C@@H]1[C@@]3(C)CC[C@H](O)C(C)(C)[C@@H]3[C@@H](O[C@@H]3O[C@H](CO)[C@@H](O)[C@H](O)[C@H]3O)C[C@]12C [Compound C1, Ginsenoside Rh1]
## Output 0.0912

====

Form field: fe-B,0–12h (fraction of dose excreted into bile) (one value per entry).
assay: Biliary (hepatobiliary) excretion in rats after a 30-min infusion of Kang-Ai injection; format: in vivo, Sprague–Dawley rats; conditions: rat bile 0–12 h; Kang-Ai injection 6 mL/kg iv
Dear colleague, please return just the value in %, with no unit written.

CC(C)=CCC[C@](C)(O[C@@H]1O[C@H](CO)[C@@H](O)[C@H](O)[C@H]1O)[C@H]1CC[C@]2(C)[C@@H]1[C@H](O)C[C@@H]1[C@@]3(C)CC[C@H](O)C(C)(C)[C@@H]3[C@@H](O[C@@H]3O[C@H](CO)[C@@H](O)[C@H](O)[C@H]3O[C@@H]3OC[C@@H](O)[C@H](O)[C@H]3O)C[C@]12C [Compound C8, Notoginsenoside R1] :: 12.00
CC(C)=CCC[C@](C)(O[C@@H]1O[C@H](CO)[C@@H](O)[C@H](O)[C@H]1O)[C@H]1CC[C@]2(C)[C@@H]1[C@H](O)C[C@@H]1[C@@]3(C)CC[C@H](O)C(C)(C)[C@@H]3[C@@H](O)C[C@]12C [Compound C2, Ginsenoside F1] :: 24.20
CC(C)=CCC[C@](C)(O[C@@H]1O[C@H](CO)[C@@H](O)[C@H](O)[C@H]1O)[C@H]1CC[C@]2(C)[C@@H]1[C@H](O)C[C@@H]1[C@@]3(C)CC[C@H](O)C(C)(C)[C@@H]3[C@@H](O[C@@H]3O[C@H](CO)[C@@H](O)[C@H](O)[C@H]3O[C@@H]3O[C@@H](C)[C@H](O)[C@@H](O)[C@H]3O)C[C@]12C [Compound C9, Ginsenoside Re] :: 28.27

## Input Which fe-B,0–12h (fraction of dose excreted into bile) is reported for this molecule? CC(C)=CCC[C@](C)(O)[C@H]1CC[C@]2(C)[C@@H]1[C@H](O)C[C@@H]1[C@@]3(C)CC[C@H](O)C(C)(C)[C@@H]3[C@@H](O[C@@H]3O[C@H](CO)[C@@H](O)[C@H](O)[C@H]3O[C@@H]3O[C@@H](C)[C@H](O)[C@@H](O)[C@H]3O)C[C@]12C [Compound C5, Ginsenoside Rg2]
## Output 20.76

## Input Which fe-B,0–12h (fraction of dose excreted into bile) is reported for this molecule? CC(C)=CCC[C@](C)(O)[C@H]1CC[C@]2(C)[C@@H]1[C@H](O)C[C@@H]1[C@@]3(C)CC[C@H](O)C(C)(C)[C@@H]3[C@@H](O[C@@H]3O[C@H](CO)[C@@H](O)[C@H](O)[C@H]3O)C[C@]12C [Compound C1, Ginsenoside Rh1]
## Output 9.71

## Input Which fe-B,0–12h (fraction of dose excreted into bile) is reported for this molecule? CC(C)=CC/C=C(\C)[C@H]1CC[C@]2(C)[C@@H]1[C@H](O)C[C@@H]1[C@@]3(C)CC[C@H](O)C(C)(C)[C@@H]3[C@@H](O[C@@H]3O[C@H](CO)[C@@H](O)[C@H](O)[C@H]3O)C[C@]12C [Compound E2, Ginsenoside Rh4]
## Output 46.95

## Input Which fe-B,0–12h (fraction of dose excreted into bile) is reported for this molecule? CC(C)=CCC[C@](C)(O)[C@H]1CC[C@]2(C)[C@@H]1[C@H](O)C[C@@H]1[C@@]3(C)CC[C@H](O)C(C)(C)[C@@H]3[C@@H](O[C@@H]3O[C@H](CO)[C@@H](O)[C@H](O)[C@H]3O[C@@H]3O[C@H](CO)[C@@H](O)[C@H](O)[C@H]3O)C[C@]12C [Compound C7, Ginsenoside Rf]
## Output 13.12

## Input Which fe-B,0–12h (fraction of dose excreted into bile) is reported for this molecule? CC(C)=CCC[C@](C)(O[C@@H]1O[C@H](CO)[C@@H](O)[C@H](O)[C@H]1O)[C@H]1CC[C@]2(C)[C@@H]1[C@H](O)C[C@@H]1[C@@]3(C)CC[C@H](O)C(C)(C)[C@@H]3[C@@H](O[C@@H]3O[C@H](CO)[C@@H](O)[C@H](O)[C@H]3O)C[C@]12C [Compound C6, Ginsenoside Rg1]
## Output 20.71
